Source: patent US20240360122A1

TEST_DETAILS: Kinetic solubility in water and bio-relevant media (SGF, FaSSIF, FeSSIF) at 37° C.
Assay type: physicochemical
MEASUREMENT_CONDITIONS: FeSSIF, 37° C., 4 hrs; residual solids by XRPD
Counter-ions that a name gives are not always drawn.
RECORDED_METRIC: FC: Form change

[[record]]
compound = "N#Cc1ccc(COc2cccc(C3CCN(Cc4nc5ccc(C(=O)O)cc5n4Cc4cncs4)CC3)n2)c(F)c1 [Freeform Type C]"
recorded_metric = "FC: Form change"
observed_value = "No"

[[record]]
compound = "N#Cc1ccc(COc2cccc(C3CCN(Cc4nc5ccc(C(=O)O)cc5n4Cc4cncs4)CC3)n2)c(F)c1 [Tris salt Type C]"
recorded_metric = "FC: Form change"
observed_value = "No"

[[record]]
compound = "N#Cc1ccc(COc2cccc(C3CCN(Cc4nc5ccc(C(=O)O)cc5n4Cc4cncs4)CC3)n2)c(F)c1 [Meglumine salt Type A]"
recorded_metric = "FC: Form change"
observed_value = "Yes"

[[record]]
compound = "N#Cc1ccc(COc2cccc(C3CCN(Cc4nc5ccc(C(=O)O)cc5n4Cc4cncs4)CC3)n2)c(F)c1 [Potassium salt Type A]"
recorded_metric = "FC: Form change"
observed_value = "No"


Now consider the entry below.
// returns reported FC: Form change for input N#Cc1ccc(COc2cccc(C3CCN(Cc4nc5ccc(C(=O)O)cc5n4Cc4cncs4)CC3)n2)c(F)c1 [Fumarate Type A] No
